Data credit: patent US5149834A

test system: rat brain homogenate; test: Anti-oxidation function: inhibition of automatic ABARTS reproduction of rat brain homogenate; type: biochemical; details: vitamin E as reference = 100
Kindly supply the reported Anti-oxidation Function values for the records listed here.
Lab note: record just the number, no unit beside it.

The compound Cc1c(O)c(C)c2c(c1CC[C@@H]1C[C@@H](O)CC(=O)O1)OC(C)(C)CC2 (relative stereo) , when measured on rat brain homogenate, yielded Anti-oxidation Function of 106

The compound CC(=O)Oc1c(C)c(CC[C@@H]2C[C@@H](O)CC(=O)O2)c2c(c1C)CCC(C)(C)O2 (relative stereo) , when measured on rat brain homogenate, yielded Anti-oxidation Function of 106

The compound Cc1c(O)c(C)c2c(c1CC[C@H]1C[C@H](O)CC(=O)O1)OC(C)(C)C2 (racemic) , when measured on rat brain homogenate, yielded Anti-oxidation Function of 106

The compound Cc1c(CC[C@@H]2C[C@@H](O)CC(=O)O2)c2c(c(C)c1OC(=O)c1cccnc1)CCC(C)(C)O2 (relative stereo) , when measured on rat brain homogenate, yielded Anti-oxidation Function of 19
